system: Escherichia coli; assay: The whole cell inhibitory activity was evaluated against the Gram-negative Escherichia coli; Not active; format: functional
Catalogue of molecules with associated MIC

# example entries with known answers
smiles.representation | MIC
O=C1NC(=S)S/C1=C\c1cc([N+](=O)[O-])ccc1Sc1ccc(Cl)cc1 | > 87 µM
O=C1NC(=S)S/C1=C\c1cc([N+](=O)[O-])ccc1Oc1ccc(Cl)cc1 | > 76 µM
O=C1NC(=S)S/C1=C/c1cc([N+](=O)[O-])ccc1SCc1ccc(Cl)cc1 | > 65 µM
O=C1NC(=S)S/C1=C\c1cccc(Oc2ccccc2)c1 | > 87 µM
O=C1NC(=S)S/C1=C\c1ccc(/C=C/c2ccccc2)cc1 | > 93 µM

// moving on: another record for MIC
Entry O=C1NC(=S)S/C1=C\c1cc(OCc2ccccc2)cc(OCc2ccccc2)c1 , Escherichia coli data, MIC value: > 69 µM

* * *

test system: Staphylococcus aureus; test: The whole cell inhibitory activity was evaluated against Gram-positive methicillin-resistant Staphylococcus aureus (MRSA); assay type: functional
Below is a list of entries, each paired with its recorded MIC value.

smiles.representation | MIC
O=C1NC(=S)S/C1=C\c1cccc(Oc2ccccc2)c1 | 79 µM

Now for the compound whose MIC we want.
Staphylococcus aureus assay, compound O=C1NC(=S)S/C1=C\c1cc([N+](=O)[O-])ccc1Oc1ccc(Cl)cc1 , recorded MIC = > 76 µM

* * *

experiment: Inhibitory concentration against recombinant UDP-N-Acetylmuramate/L-Alanine Ligase (MurC) enzyme
Item-by-item account of pIC50
Lab note: report pIC50 as minus log10 of the concentration in molar units, number only.

Record excerpt, results attached:
smiles.representation | pIC50
O=C1NC(=S)S/C1=C\c1cc([N+](=O)[O-])ccc1Oc1ccc(Cl)cc1 | 4.62
O=C1NC(=S)S/C1=C\c1cc([N+](=O)[O-])ccc1Sc1ccc(Cl)cc1 | 4.62
O=C1NC(=S)S/C1=C\c1cc(OCc2ccccc2)cc(OCc2ccccc2)c1 | 4.92
O=C1NC(=S)S/C1=C\c1cccc(Oc2ccccc2)c1 | 4.66
O=C1NC(=S)S/C1=C\c1ccc(/C=C/c2ccccc2)cc1 | 4.74

Below: the item to evaluate.
Form field pIC50, entry O=C1NC(=S)S/C1=C/c1cc([N+](=O)[O-])ccc1SCc1ccc(Cl)cc1 : 4.57

* * *

test system: Staphylococcus aureus; experiment: The whole cell inhibitory activity was evaluated against Gram-positive methicillin-resistant Staphylococcus aureus (MRSA); assay type: functional
measured.quantity: MIC (µM)
Supply the numeric figure in µM, leaving out any unit text.

smiles.representation | measured.target | measured.quantity | endpoint.unit | quantitative.readout
O=C1NC(=S)S/C1=C\c1cc([N+](=O)[O-])ccc1Sc1ccc(Cl)cc1 | Staphylococcus aureus | MIC | µM | 70

Moving on to another molecule below.
// O=C1NC(=S)S/C1=C/c1cc([N+](=O)[O-])ccc1SCc1ccc(Cl)cc1 : MIC value = 31
